# credit: ChEMBL document CHEMBL1145458

Reported Tmax values for the following molecules.
# method-summary: Tmax in Sprague-Dawley rat at 5 mg/kg, po
# Type: ADME, organism-based
# Design: dose 5 mg/kg, route oral
# condition: in vivo
Note: unit h is implicit; provide only the numeric part.

FC(F)(F)c1ccc(-c2cc(Oc3ccc4cccnc4c3)ncn2)cc1 | 1.2
CC(C)(C)c1ccc(-c2cc(Nc3ccc4cccnc4c3)ncn2)cc1 | 0.5

Input: Fill in the blank: the reported Tmax of FC(F)(F)c1ccc(-c2cc(Nc3ccc4cccnc4c3)ncn2)cc1 is ____.
Output: 5

###

# method-summary: AUC (0-infinity) in Sprague-Dawley rat at 3 mg/kg, iv
# Type: ADME, organism-based
# Parameters: time infinity, dose 3 mg/kg, route intravenous
# condition: plasma
readout-label: AUC(0-inf) (ng·h/mL)
// units = ng·h/mL; emit number, no label

Input: Could you share which AUC(0-inf) value was measured for CC(C)(C)c1ccc(/C=C/C(=O)Nc2ccc3c(c2)OCCO3)cc1 ?
Output: 680

###

# measured-target: Transient receptor potential cation channel subfamily V member 1 (Homo sapiens, UniProt Q8NER1)
# Sequence (Q8NER1 whole entry): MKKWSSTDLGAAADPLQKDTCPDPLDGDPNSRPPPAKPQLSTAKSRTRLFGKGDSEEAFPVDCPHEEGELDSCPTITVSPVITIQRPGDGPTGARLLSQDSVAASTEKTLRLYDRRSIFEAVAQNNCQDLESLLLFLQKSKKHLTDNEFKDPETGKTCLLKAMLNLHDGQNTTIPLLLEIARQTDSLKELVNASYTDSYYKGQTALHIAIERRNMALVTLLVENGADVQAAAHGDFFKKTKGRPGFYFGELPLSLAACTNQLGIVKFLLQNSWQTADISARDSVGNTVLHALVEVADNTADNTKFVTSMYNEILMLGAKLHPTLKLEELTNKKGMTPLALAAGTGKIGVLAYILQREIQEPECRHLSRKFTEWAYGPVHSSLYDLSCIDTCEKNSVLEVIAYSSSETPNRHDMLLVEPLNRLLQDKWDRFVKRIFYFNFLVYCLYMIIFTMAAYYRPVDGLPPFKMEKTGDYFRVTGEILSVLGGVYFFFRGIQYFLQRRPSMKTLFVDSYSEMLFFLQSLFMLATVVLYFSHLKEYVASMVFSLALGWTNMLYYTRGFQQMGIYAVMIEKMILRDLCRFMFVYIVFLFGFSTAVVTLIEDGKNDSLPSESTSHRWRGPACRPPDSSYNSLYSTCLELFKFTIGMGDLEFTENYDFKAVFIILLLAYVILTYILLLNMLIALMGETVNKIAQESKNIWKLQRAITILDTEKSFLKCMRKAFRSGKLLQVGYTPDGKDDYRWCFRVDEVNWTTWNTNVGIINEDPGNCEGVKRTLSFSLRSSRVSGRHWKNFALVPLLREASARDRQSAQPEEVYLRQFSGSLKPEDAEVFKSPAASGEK
# method-summary: Antagonist activity at human TRPV1 expressed in CHO cells assessed as inhibition of capsaicin-induced calcium influx
# Format: functional, cell-based
Quick reference: IC50 of the listed items.
Write the answer as a number in nM, unit excluded.

FC(F)(F)c1ccc(-c2cc(Nc3ccc4cccnc4c3)ncn2)cc1 | 0.6
FC(F)(F)c1ccc(-c2cc(Oc3ccc4cccnc4c3)ncn2)cc1 | 3.7
FC(F)(F)c1ccc(-c2cc(Nc3ccc4c(c3)OCCO4)ncn2)cc1 | 120
CC(C)(C)c1ccc(-c2cc(Nc3ccc4c(c3)OCCO4)ncn2)cc1 | 51

# input for lookup
Input: Requested read-out: IC50. Entry: CC(C)(C)c1ccc(-c2cc(Nc3ccc4cccnc4c3)ncn2)cc1
Output: 1.9

###

# measured-target: Transient receptor potential cation channel subfamily V member 1 (Rattus norvegicus, UniProt O35433)
# Sequence (O35433 whole entry): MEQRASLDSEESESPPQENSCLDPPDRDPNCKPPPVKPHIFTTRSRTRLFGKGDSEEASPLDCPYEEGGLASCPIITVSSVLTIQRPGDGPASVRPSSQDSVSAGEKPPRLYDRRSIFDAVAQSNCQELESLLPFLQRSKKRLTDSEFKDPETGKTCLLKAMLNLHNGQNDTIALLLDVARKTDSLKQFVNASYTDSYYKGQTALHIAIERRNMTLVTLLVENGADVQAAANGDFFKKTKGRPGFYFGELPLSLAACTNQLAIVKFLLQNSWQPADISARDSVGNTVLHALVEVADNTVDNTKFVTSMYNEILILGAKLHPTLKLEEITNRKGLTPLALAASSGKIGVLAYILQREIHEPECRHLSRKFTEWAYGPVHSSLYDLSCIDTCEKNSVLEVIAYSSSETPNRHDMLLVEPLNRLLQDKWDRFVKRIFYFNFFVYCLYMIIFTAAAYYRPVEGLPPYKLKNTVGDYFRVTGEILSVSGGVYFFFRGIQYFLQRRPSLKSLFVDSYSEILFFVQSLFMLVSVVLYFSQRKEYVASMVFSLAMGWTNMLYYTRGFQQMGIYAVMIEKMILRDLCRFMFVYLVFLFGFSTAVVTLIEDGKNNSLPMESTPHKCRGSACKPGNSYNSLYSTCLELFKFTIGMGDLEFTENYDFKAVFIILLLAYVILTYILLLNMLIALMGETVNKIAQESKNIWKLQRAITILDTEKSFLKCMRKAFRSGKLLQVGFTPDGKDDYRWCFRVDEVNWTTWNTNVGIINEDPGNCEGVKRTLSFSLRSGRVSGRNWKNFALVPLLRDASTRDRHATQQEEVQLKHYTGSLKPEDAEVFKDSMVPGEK
# method-summary: Antagonist activity at rat TRPV1 expressed in CHO cells assessed as inhibition of acid-induced calcium influx
# Type: functional, cell-based
IC50 reference

CC(C)(C)c1ccc(-c2cncc(Nc3ccc4c(c3)OCCO4)c2)cc1 | > 4000 nM

Input: Which IC50 reading was recorded for the molecule CC(C)(C)c1ccc(-c2cc(Nc3ccc4c(c3)OCCO4)cnn2)cc1 ?
Output: > 4000 nM

Input: Cool, now CC(C)(C)c1ccc(-c2cc(Nc3ccc4cccnc4c3)ncn2)cc1
Output: 22 nM

Input: Proceed to CC(C)(C)c1ccc(/C=C2\CCCN(c3ccc4c(c3)OCCO4)C2=O)cc1
Output: > 4000 nM

Input: And FC(F)(F)c1ccc(-c2cc(Nc3ccc4cccnc4c3)ncn2)cc1 ?
Output: 6.6 nM
